METHOD SUMMARY: Extrapolated human dosimetry (OLINDA/EXM, ICRP-89 phantoms)
MEASUREMENT SETUP: ICRP 89 Adult Male, extrapolated
REPORTED PROPERTY: Absorbed dose (AD average) Stomach Wall

Exercise: May I ask what Absorbed dose (AD average) Stomach Wall has been recorded for N#C[C@@H]1CC(F)(F)CN1C(=O)CNC(=O)c1ccnc2ccc(OCCCCNC(=O)CC[C@H](NC(=O)CN3CCN(CC(=O)[O-])CCN(CC(=O)[O-])CCN(CC(=O)[O-])CC3)C(=O)NCCCCOc3ccc4nccc(C(=O)NCC(=O)N5CC(F)(F)C[C@H]5C#N)c4c3)cc12.[177Lu+3] [[^177Lu]Lu-DO3A.Glu.(FAPI)2] ?
Solution: 2.83E-02 mGy/Mbq

Where do these numbers come from? They come from paper PMC12860872.
